Ref: patent US20250320214A1

Overview of recorded inhibition at 0.1 µM for various compounds
biological target: 5-HT2A (Homo sapiens, UniProt P28223); assay: Receptor binding, 5-HT2A; conditions: read-out: 5-HT2A maximum inhibition
Sequence (P28223 whole entry): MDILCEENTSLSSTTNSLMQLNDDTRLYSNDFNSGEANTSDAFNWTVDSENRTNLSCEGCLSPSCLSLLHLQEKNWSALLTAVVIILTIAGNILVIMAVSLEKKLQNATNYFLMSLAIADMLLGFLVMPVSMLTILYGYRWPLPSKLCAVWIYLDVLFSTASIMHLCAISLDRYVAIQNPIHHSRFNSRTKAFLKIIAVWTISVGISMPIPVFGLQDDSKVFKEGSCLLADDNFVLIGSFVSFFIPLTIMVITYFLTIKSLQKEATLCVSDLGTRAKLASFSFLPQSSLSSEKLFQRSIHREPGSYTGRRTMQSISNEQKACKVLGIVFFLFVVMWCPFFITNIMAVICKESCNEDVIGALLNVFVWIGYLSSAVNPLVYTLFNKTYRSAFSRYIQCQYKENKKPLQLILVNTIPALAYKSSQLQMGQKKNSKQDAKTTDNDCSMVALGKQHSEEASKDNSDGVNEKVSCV
REPORTED_METRIC: inhibition at 0.1 µM (%)

CHEMICAL_STRING: O=C1CN2c3c(cccc3[C@@H]3CN(CCCOc4ccc(OCc5ccccc5)cc4)CC[C@@H]32)N1
READOUT_QUALIFIER: =
VALUE_OBSERVED: 76
--
CHEMICAL_STRING: Cc1cc(F)cc(C)c1OCCCN1CC[C@H]2[C@@H](C1)c1cccc3c1N2CC(=O)N3
READOUT_QUALIFIER: =
VALUE_OBSERVED: 40
--
CHEMICAL_STRING: CCCCN1CC[C@H]2[C@@H](C1)c1cccc3c1N2CC(=O)N3
READOUT_QUALIFIER: <
VALUE_OBSERVED: 0
--
CHEMICAL_STRING: O=C1CN2c3c(cccc3[C@@H]3CN(CCCOc4ccc(O)cc4)CC[C@@H]32)N1
READOUT_QUALIFIER: =
VALUE_OBSERVED: 77
--
CHEMICAL_STRING: NC(=O)c1cc(F)ccc1OCCCN1CC[C@H]2[C@@H](C1)c1cccc3c1N2CC(=O)N3
READOUT_QUALIFIER: =
VALUE_OBSERVED: 14
--
CHEMICAL_STRING: O=C1CN2c3c(cccc3[C@@H]3CN(CCCO)CC[C@@H]32)N1
READOUT_QUALIFIER: =
VALUE_OBSERVED: 8
--
CHEMICAL_STRING: O=C1CN2c3c(cccc3[C@@H]3CN(CCCS(=O)(=O)c4ccc(F)cc4)CC[C@@H]32)N1
READOUT_QUALIFIER: =
VALUE_OBSERVED: 33

###

molecular target: D2 (Homo sapiens); test: Receptor binding, D2; details: at 100 nM; read-out: D2 maximum inhibition

CHEMICAL_STRING: O=C1CN2c3c(cccc3[C@@H]3CN(CCCOc4ccc(F)cc4Cl)CC[C@@H]32)N1
inhibition at 0.1 µM / %: 80
--
CHEMICAL_STRING: O=C1Nc2cccc3c2N([C@H]2CCN(CCCOc4ccc(F)cc4)C[C@@H]32)C1(F)F
inhibition at 0.1 µM / %: 7
--
CHEMICAL_STRING: O=C1CN2c3c(cccc3[C@@H]3CN(CCCC(=O)c4ccc(Cl)s4)CC[C@@H]32)N1
inhibition at 0.1 µM / %: 41
--
CHEMICAL_STRING: CC(=O)Nc1cccc2c1N[C@H]1CCN(CCCC(=O)c3ccc(F)cc3)C[C@@H]21
inhibition at 0.1 µM / %: 49
--
CHEMICAL_STRING: O=C1CN2c3c(cccc3[C@@H]3CN(CCCOc4ccc(F)c(Cl)c4)CC[C@@H]32)N1
inhibition at 0.1 µM / %: 0
--
CHEMICAL_STRING: CCCCN1CC[C@H]2[C@@H](C1)c1cccc3c1N2CC(=O)N3
inhibition at 0.1 µM / %: 15

###

pKi: −log10 of the molar value.
The listing below reports pKi for compounds tested on UniProt:P28223.
REPORTED_METRIC: pKi

CHEMICAL_STRING: O=C1CN2c3c(cccc3[C@@H]3CN(CCCOc4ccc(F)c(F)c4)CC[C@@H]32)N1
MEASURED_ON: UniProt:P28223
REPORTED_METRIC: pKi
VALUE_OBSERVED: 7.79

CHEMICAL_STRING: O=C1CN2c3c(cccc3[C@@H]3CN(CCCOc4ccccc4)CC[C@@H]32)N1
MEASURED_ON: UniProt:P28223
REPORTED_METRIC: pKi
VALUE_OBSERVED: 8.55

CHEMICAL_STRING: Cc1cc(F)ccc1OCCCN1CC[C@H]2[C@@H](C1)c1cccc3c1N2CC(=O)N3
MEASURED_ON: UniProt:P28223
REPORTED_METRIC: pKi
VALUE_OBSERVED: 9.40

CHEMICAL_STRING: O=C1CN2c3c(cccc3[C@@H]3CN(CCCC(=O)c4ccc(Cl)s4)CC[C@@H]32)N1
MEASURED_ON: UniProt:P28223
REPORTED_METRIC: pKi
VALUE_OBSERVED: 7.74

###

molecular target: SERT (Homo sapiens, UniProt P31645); assay: Receptor binding, SERT; conditions: at 200 nM; read-out: SERT maximum inhibition
Sequence (P31645 whole entry): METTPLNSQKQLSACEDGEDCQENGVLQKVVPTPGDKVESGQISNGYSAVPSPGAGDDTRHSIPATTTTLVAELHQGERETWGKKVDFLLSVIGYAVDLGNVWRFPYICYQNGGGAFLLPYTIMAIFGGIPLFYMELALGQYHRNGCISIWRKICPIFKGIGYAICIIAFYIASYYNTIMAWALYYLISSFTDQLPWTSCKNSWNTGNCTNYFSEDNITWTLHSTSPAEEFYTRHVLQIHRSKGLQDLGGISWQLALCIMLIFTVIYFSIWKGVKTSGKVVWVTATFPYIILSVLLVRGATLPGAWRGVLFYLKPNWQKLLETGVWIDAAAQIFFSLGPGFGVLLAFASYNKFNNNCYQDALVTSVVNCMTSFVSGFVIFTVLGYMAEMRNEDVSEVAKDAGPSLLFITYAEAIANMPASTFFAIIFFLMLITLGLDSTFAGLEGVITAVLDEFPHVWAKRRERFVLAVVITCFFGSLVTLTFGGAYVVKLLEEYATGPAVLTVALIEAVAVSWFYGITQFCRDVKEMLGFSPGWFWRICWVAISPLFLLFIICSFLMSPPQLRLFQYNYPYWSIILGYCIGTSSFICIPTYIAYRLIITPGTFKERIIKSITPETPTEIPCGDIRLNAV

MOLECULE: CC(=O)Nc1cccc2c1N[C@H]1CCN(CCCOc3ccc(F)cc3)C[C@@H]21
UNIT_NAME: %
READOUT_QUALIFIER: =
inhibition at 0.2 µM: 4
//
MOLECULE: CCc1cc(F)ccc1OCCCN1CC[C@H]2[C@@H](C1)c1cccc3c1N2CC(=O)N3
UNIT_NAME: %
READOUT_QUALIFIER: =
inhibition at 0.2 µM: 26
//
MOLECULE: CC(=O)Nc1cccc2c1N[C@H]1CCN(CCCC(O)c3ccc(F)cc3)C[C@@H]21 (some centres unmarked)
UNIT_NAME: %
READOUT_QUALIFIER: <
inhibition at 0.2 µM: 0
//
MOLECULE: O=C1CN2c3c(cccc3[C@@H]3CN(CCCOc4ccc(OCc5ccccc5)cc4)CC[C@@H]32)N1
UNIT_NAME: %
READOUT_QUALIFIER: =
inhibition at 0.2 µM: 68
//
MOLECULE: O=C1Nc2cccc3c2N([C@H]2CCN(CCCOc4ccc(F)cc4)C[C@@H]32)C1(F)F
UNIT_NAME: %
READOUT_QUALIFIER: =
inhibition at 0.2 µM: 6

###

target: D2 (Homo sapiens, UniProt P14416); test: Receptor binding, D2; settings: read-out: D2 maximum inhibition
Sequence (P14416 1-414 isoform P14416-2): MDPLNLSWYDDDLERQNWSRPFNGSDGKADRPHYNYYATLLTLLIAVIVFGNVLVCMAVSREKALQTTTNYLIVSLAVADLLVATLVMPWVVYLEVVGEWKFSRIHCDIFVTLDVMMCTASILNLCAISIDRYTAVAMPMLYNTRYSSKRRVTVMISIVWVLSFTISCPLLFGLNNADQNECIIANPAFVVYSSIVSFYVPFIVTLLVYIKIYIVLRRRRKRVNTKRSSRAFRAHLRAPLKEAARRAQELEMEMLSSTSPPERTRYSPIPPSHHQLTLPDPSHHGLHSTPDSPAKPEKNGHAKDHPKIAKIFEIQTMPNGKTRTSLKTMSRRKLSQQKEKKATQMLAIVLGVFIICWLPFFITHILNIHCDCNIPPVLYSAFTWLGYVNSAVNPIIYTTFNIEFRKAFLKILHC

CHEMICAL_STRING: O=C1CN2c3c(cccc3[C@@H]3CN(CCCOc4ccc(O)cc4)CC[C@@H]32)N1
MEASURED_ON: D2 (Homo sapiens, UniProt P14416)
inhibition at 0.1 µM [%]: 41
//
CHEMICAL_STRING: O=C1CN2c3c(cccc3[C@@H]3CN(CCCOc4ccc(OCc5ccccc5)cc4)CC[C@@H]32)N1
MEASURED_ON: D2 (Homo sapiens, UniProt P14416)
inhibition at 0.1 µM [%]: 23
//
CHEMICAL_STRING: O=C1CN2c3c(cccc3[C@@H]3CN(CCCOc4ccc(F)c(F)c4)CC[C@@H]32)N1
MEASURED_ON: D2 (Homo sapiens, UniProt P14416)
inhibition at 0.1 µM [%]: 7
//
CHEMICAL_STRING: O=C1CN2c3c(cccc3[C@@H]3CN(CCCOc4ccccc4)CC[C@@H]32)N1
MEASURED_ON: D2 (Homo sapiens, UniProt P14416)
inhibition at 0.1 µM [%]: 34

###

target: D1 (Homo sapiens, UniProt P21728); assay: Receptor binding, D1
Sequence (P21728 whole entry): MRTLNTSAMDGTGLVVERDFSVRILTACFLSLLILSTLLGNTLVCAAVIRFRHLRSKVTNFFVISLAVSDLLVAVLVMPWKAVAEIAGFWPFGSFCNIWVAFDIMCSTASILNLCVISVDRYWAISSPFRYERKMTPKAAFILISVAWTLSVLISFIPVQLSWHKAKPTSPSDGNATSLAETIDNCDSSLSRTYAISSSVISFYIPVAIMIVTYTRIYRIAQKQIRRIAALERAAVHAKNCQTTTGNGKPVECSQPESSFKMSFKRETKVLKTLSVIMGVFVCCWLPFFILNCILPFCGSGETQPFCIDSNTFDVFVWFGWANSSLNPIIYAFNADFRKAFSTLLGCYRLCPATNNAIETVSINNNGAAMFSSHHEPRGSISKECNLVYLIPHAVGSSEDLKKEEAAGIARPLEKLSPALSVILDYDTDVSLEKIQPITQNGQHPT

COMPOUND: N#Cc1cc(F)ccc1OCCCN1CC[C@H]2[C@@H](C1)c1cccc3c1N2CC(=O)N3 [Ex. 25]
MEASURED_ON: D1 (Homo sapiens, UniProt P21728)
Ki / nM: 74

###

target: D2 (Homo sapiens); experiment: Receptor binding, D2
pKi: −log10 of the molar value.

COMPOUND: N#Cc1cc(F)ccc1OCCCN1CC[C@H]2[C@@H](C1)c1cccc3c1N2CC(=O)N3 [Ex. 25]
pKi: 7.37

###

target: D1 (Homo sapiens); assay: Receptor binding, D1; conditions: read-out: D1 maximum inhibition

COMPOUND: O=C1CN2c3c(cccc3[C@@H]3CN(CCCOc4ccccc4)CC[C@@H]32)N1
UNIT_NAME: %
inhibition at 0.1 µM: 24
//
COMPOUND: O=C1CN2c3c(cccc3[C@@H]3CN(CCCOc4ccc(OCc5ccccc5)cc4)CC[C@@H]32)N1
UNIT_NAME: %
inhibition at 0.1 µM: 4.6
//
COMPOUND: O=C1CN2c3c(cccc3[C@@H]3CN(CCCOc4ccc(F)c(F)c4)CC[C@@H]32)N1
UNIT_NAME: %
inhibition at 0.1 µM: 15
//
COMPOUND: O=C1CN2c3c(cccc3[C@@H]3CN(CCCOc4ccc(F)cc4)CC[C@@H]32)N1 [Fm. A, reference compound]
UNIT_NAME: %
inhibition at 0.1 µM: 44

###

biological target: D1 (Homo sapiens); assay: Receptor binding, D1; settings: at 100 nM; read-out: D1 maximum inhibition
Decision: inhibition at 0.1 µM compared against 20%; not below it gives Condition met, below it gives Condition not met.

MOLECULE: O=C1CN2c3c(cccc3[C@@H]3CN(CCCC(=O)c4ccc(Cl)s4)CC[C@@H]32)N1
MEASURED_ON: D1 (Homo sapiens)
GROUP_LABEL: Condition met

MOLECULE: O=C1CN2c3c(cccc3[C@@H]3CN(CCCOc4ccc(F)c(Cl)c4)CC[C@@H]32)N1
MEASURED_ON: D1 (Homo sapiens)
GROUP_LABEL: Condition not met

MOLECULE: O=C1Nc2cccc3c2N([C@H]2CCN(CCCOc4ccc(F)cc4)C[C@@H]32)C1(F)F
MEASURED_ON: D1 (Homo sapiens)
GROUP_LABEL: Condition met

MOLECULE: CC(=O)Nc1cccc2c1N[C@H]1CCN(CCCC(O)c3ccc(F)cc3)C[C@@H]21 (stereo partly drawn)
MEASURED_ON: D1 (Homo sapiens)
GROUP_LABEL: Condition not met

MOLECULE: CN1C(=O)CN2c3c(cccc31)[C@@H]1CN(CCCOc3ccc(F)cc3C#N)CC[C@@H]12
MEASURED_ON: D1 (Homo sapiens)
GROUP_LABEL: Condition met

MOLECULE: Cc1cc(OCCCN2CC[C@H]3[C@@H](C2)c2cccc4c2N3CC(=O)N4)ccc1F
MEASURED_ON: D1 (Homo sapiens)
GROUP_LABEL: Condition not met

MOLECULE: O=C1CN2c3c(cccc3[C@@H]3CN(CCCOc4ccc(O)cc4)CC[C@@H]32)N1
MEASURED_ON: D1 (Homo sapiens)
GROUP_LABEL: Condition not met

MOLECULE: O=C1CN2c3c(cccc3[C@@H]3CN(CCCOc4ccc(F)cc4Cl)CC[C@@H]32)N1
MEASURED_ON: D1 (Homo sapiens)
GROUP_LABEL: Condition met

MOLECULE: CC(=O)Nc1cccc2c1N[C@H]1CCN(CCCC(=O)c3ccc(F)cc3)C[C@@H]21
MEASURED_ON: D1 (Homo sapiens)
GROUP_LABEL: Condition met

MOLECULE: N#Cc1cc(OCCCN2CC[C@H]3[C@@H](C2)c2cccc4c2N3CC(=O)N4)ccc1F
MEASURED_ON: D1 (Homo sapiens)
GROUP_LABEL: Condition not met

MOLECULE: CC(=O)Nc1cccc2c1N[C@H]1CCN(CCCOc3ccc(F)cc3)C[C@@H]21
MEASURED_ON: D1 (Homo sapiens)
GROUP_LABEL: Condition met

MOLECULE: Cc1cc(F)cc(C)c1OCCCN1CC[C@H]2[C@@H](C1)c1cccc3c1N2CC(=O)N3
MEASURED_ON: D1 (Homo sapiens)
GROUP_LABEL: Condition not met

MOLECULE: NC(=O)c1cc(F)ccc1OCCCN1CC[C@H]2[C@@H](C1)c1cccc3c1N2CC(=O)N3
MEASURED_ON: D1 (Homo sapiens)
GROUP_LABEL: Condition not met

MOLECULE: CCc1cc(F)ccc1OCCCN1CC[C@H]2[C@@H](C1)c1cccc3c1N2CC(=O)N3
MEASURED_ON: D1 (Homo sapiens)
GROUP_LABEL: Condition met

MOLECULE: Cc1cc(F)ccc1OCCCN1CC[C@H]2[C@@H](C1)c1cccc3c1N2CC(=O)N3
MEASURED_ON: D1 (Homo sapiens)
GROUP_LABEL: Condition met
